experiment: AUC (0 to infinity) in Sprague-Dawley rat; format: ADME, organism-based; design: time infinity; conditions: in vivo

[
  {
    "compound": "CC(=O)O[C@@]12CO[C@@H]1C[C@H](O)[C@@]1(C)C(=O)[C@H](O)C3=C(C)[C@@H](OC(=O)[C@H](O)[C@@H](NC(=O)OC(C)(C)C(F)(F)F)c4ccccc4)C[C@@](O)([C@@H](OC(=O)c4ccccc4)C12)C3(C)C (stereo partly specified)",
    "measurementUnit": "ng·h/mL",
    "AUC(0-inf)": 3960
  }
]
